# Test system: Enterococcus faecalis ATCC 29212
# methodNotes: Broth microdilution MIC, E. faecalis ATCC 29212
# Format: cell-based
# setupConditions: ATCC29212, broth microdilution, 37° C., 20 hours, read-out: MIC E. faecalis ATCC 29212
measure: MIC (µg/mL)
A number alone suffices; assume µg/mL.

Worked examples, 3 compounds total:
Input O=c1[nH]c(NCc2ccc(Cl)c(Cl)c2)nc2cnn(CCOC3CCOCC3)c12 [Compound 108] , output reported MIC.
8

Input O=c1[nH]c(NCc2ccc(Cl)c(Cl)c2)nc2cnn(Cc3ncccn3)c12 [Compound 114] , output reported MIC.
16

Input Cc1ccc(CNc2nc3cnn(C)c3c(=O)[nH]2)cc1C [Compound 33] , output reported MIC.
32

Now turn to the next compound.
Input Cn1nc(C#N)c2nc(NCc3ccc(Cl)c(Cl)c3)[nH]c(=O)c21 [Compound 45] , output reported MIC.
4

====

# Tested on: Enterococcus faecalis ATCC 29212
# methodNotes: Broth microdilution MIC, E. faecalis ATCC 29212
# Type: cell-based
# setupConditions: ATCC29212, 20 h, read-out: MIC E. faecalis ATCC 29212
Counter-ions that a name gives are not always drawn.
Documented MIC across a set of compounds

Worked examples, 2 compounds total:
Input O=c1[nH]c(NCc2ccc(Cl)c(Cl)c2)nc2cnn(CC3CCCN3c3ccccn3)c12 (stereo not drawn) [Compound 182, dihydrochloride] , output reported MIC.
8 µg/mL

Input O=c1[nH]c(NCc2ccc(Cl)c(Cl)c2)nc2cn(C3CCNC3)nc12 (stereo not drawn) [Compound 215, TFA salt] , output reported MIC.
> 64 µg/mL

Now turn to the next compound.
Input O=c1[nH]c(NCc2ccc(Cl)c(Cl)c2)nc2cnn(C3CCN(c4cccnc4)CC3)c12 [Compound 163, dihydrochloride] , output reported MIC.
> 64 µg/mL

====

Documented MIC across a set of molecules
# System: Enterococcus faecalis ATCC 29212
# methodNotes: Broth microdilution MIC, E. faecalis ATCC 29212
# Type: cell-based
# setupConditions: ATCC29212, broth microdilution, 37° C., 20 hours, read-out: MIC E. faecalis ATCC 29212
# Description: Bacteria tested are Staphylococcus aureus NRS384 (a methicillin-resistant Staphylococcus aureus, MRSA), Staphylococcus aureus ATCC 29213 (a methicillin-sensitive Staphylococcus aureus, MSSA), Streptococcus pneumoniae ATCC 49619, Enterococcus faecalis ATCC 29212, Enterococcus faecium ATCC 700221 (a vancomycin-resistant enterococcus, VRE), Bacillus subtilis ATCC 6633, and Escherichia coli ATCC 25922. […]
A number alone suffices; assume µg/mL.

Worked examples, 6 molecules total:
Answer briefly: MIC recorded on Enterococcus faecalis ATCC 29212 for CNC(=N)NCCn1ncc2nc(NCc3ccc(Cl)c(Cl)c3)[nH]c(=O)c21.Cl
64

Answer briefly: MIC recorded on Enterococcus faecalis ATCC 29212 for O=c1[nH]c(NCc2ccc(Cl)c(Cl)c2)nc2cnn(CCc3ncccn3)c12
8

Answer briefly: MIC recorded on Enterococcus faecalis ATCC 29212 for C=CCn1ncc2nc(NCc3ccc(Cl)c(Cl)c3)[nH]c(=O)c21
2

Answer briefly: MIC recorded on Enterococcus faecalis ATCC 29212 for O=C(O)COCCOCCn1ncc2nc(NCc3ccc(Cl)c(Cl)c3)[nH]c(=O)c21
64

Answer briefly: MIC recorded on Enterococcus faecalis ATCC 29212 for O=C(c1nccs1)N1CCC(n2ncc3nc(NCc4ccc(Cl)c(Cl)c4)[nH]c(=O)c32)CC1
4

Answer briefly: MIC recorded on Enterococcus faecalis ATCC 29212 for O=c1[nH]c(NCc2ccc(Cl)c(Cl)c2)nc2cnn(C3CCCC3)c12
2

Now turn to the next molecule.
Answer briefly: MIC recorded on Enterococcus faecalis ATCC 29212 for CN(CCn1ncc2nc(NCc3ccc(Cl)c(Cl)c3)[nH]c(=O)c21)C(=O)c1cc(Cl)nnc1Cl
8
